The values you see were collected from patent US20250034167A1.

target: His-tagged KRAS G12D protein (Homo sapiens, UniProt P01116, G12D); experiment: biochemical
Sequence (P01116 1-188 isoform P01116-2 G12D): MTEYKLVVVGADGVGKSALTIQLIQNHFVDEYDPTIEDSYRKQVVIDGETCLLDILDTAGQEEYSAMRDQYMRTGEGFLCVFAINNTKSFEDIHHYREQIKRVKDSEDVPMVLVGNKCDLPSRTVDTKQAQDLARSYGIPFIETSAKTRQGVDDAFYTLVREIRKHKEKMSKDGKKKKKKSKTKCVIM

{"columns": ["Compound", "System name", "IC50, nM"],
 "data": [
  ["CCc1c(F)ccc2cc(O)cc(-c3ncc4c(N5CCC[C@@H](S(N)(=O)=O)C5)nc(OC[C@@]56CCCN5C[C@H](F)C6)nc4c3F)c12", "His-tagged KRAS G12D protein (Homo sapiens, UniProt P01116, G12D)", 1],
  ["CCc1c(F)ccc2cc(O)cc(-c3ncc4c(N5CC6CC(=O)C5C6)nc(OC[C@@]56CCCN5C[C@H](F)C6)nc4c3F)c12 (stereo partly drawn)", "His-tagged KRAS G12D protein (Homo sapiens, UniProt P01116, G12D)", 34],
  ["CCc1c(F)ccc2cc(O)cc(-c3ncc4c(N5CC[C@H]6CNC(=O)[C@H]6C5)nc(OC[C@@]56CCCN5C[C@H](F)C6)nc4c3F)c12 (relative stereo)", "His-tagged KRAS G12D protein (Homo sapiens, UniProt P01116, G12D)", 4],
  ["C#Cc1c(F)ccc2cc(O)cc(-c3ncc4c(N5CC6CC(O)C(C6)C5)nc(OC[C@@]56CCCN5C[C@H](F)C6)nc4c3F)c12 (single isomer, unassigned) [Example 28]", "His-tagged KRAS G12D protein (Homo sapiens, UniProt P01116, G12D)", 1],
  ["CCc1c(F)ccc2cc(O)cc(-c3ncc4c(N5CCCC(c6ccn[nH]6)C5)nc(OC[C@@]56CCCN5C[C@H](F)C6)nc4c3F)c12 (stereo partly drawn)", "His-tagged KRAS G12D protein (Homo sapiens, UniProt P01116, G12D)", 8],
  ["CCc1c(F)ccc2cc(O)cc(-c3ncc4c(N5CC(C)CC(O)C5)nc(OC[C@@]56CCCN5C[C@H](F)C6)nc4c3F)c12 (mixture of isomers)", "His-tagged KRAS G12D protein (Homo sapiens, UniProt P01116, G12D)", 5],
  ["CCc1c(F)ccc2cc(O)cc(-c3ncc4c(N5CCC(=O)C(F)(F)CC5)nc(OC[C@@]56CCCN5C[C@H](F)C6)nc4c3F)c12", "His-tagged KRAS G12D protein (Homo sapiens, UniProt P01116, G12D)", 3],
  ["CCc1c(F)ccc2cc(O)cc(-c3ncc4c(N5CC[C@H](C)[C@@H](O)C5)nc(OC[C@@]56CCCN5C[C@H](F)C6)nc4c3F)c12", "His-tagged KRAS G12D protein (Homo sapiens, UniProt P01116, G12D)", 25],
  ["CCc1c(F)ccc2cc(O)cc(-c3ncc4c(N5CCCCCCC5)nc(OC[C@@]56CCCN5C[C@H](F)C6)nc4c3F)c12", "His-tagged KRAS G12D protein (Homo sapiens, UniProt P01116, G12D)", 2],
  ["CCC1CCCc2cc(O)cc(-c3ncc4c(N5CCC[C@@](C)(O)C5)nc(OC[C@@]56CCCN5C[C@H](F)C6)nc4c3F)c21 (single isomer, unassigned) [Example 174]", "His-tagged KRAS G12D protein (Homo sapiens, UniProt P01116, G12D)", 335],
  ["CCc1c(F)ccc2cc(O)cc(-c3ncc4c(N5CC6CCC(C5)C6(C)O)nc(OC[C@@]56CCCN5C[C@H](F)C6)nc4c3F)c12 (stereo partly drawn)", "His-tagged KRAS G12D protein (Homo sapiens, UniProt P01116, G12D)", 80],
  ["CCc1c(F)ccc2cc(O)cc(-c3ncc4c(N5CCC=CC(O)C5)nc(OC[C@@]56CCCN5C[C@H](F)C6)nc4c3F)c12 (stereo partly drawn)", "His-tagged KRAS G12D protein (Homo sapiens, UniProt P01116, G12D)", 1]
]}
